tested-on: CXCR7 (Homo sapiens (Human), UniProt P25106)
Sequence (P25106 whole entry): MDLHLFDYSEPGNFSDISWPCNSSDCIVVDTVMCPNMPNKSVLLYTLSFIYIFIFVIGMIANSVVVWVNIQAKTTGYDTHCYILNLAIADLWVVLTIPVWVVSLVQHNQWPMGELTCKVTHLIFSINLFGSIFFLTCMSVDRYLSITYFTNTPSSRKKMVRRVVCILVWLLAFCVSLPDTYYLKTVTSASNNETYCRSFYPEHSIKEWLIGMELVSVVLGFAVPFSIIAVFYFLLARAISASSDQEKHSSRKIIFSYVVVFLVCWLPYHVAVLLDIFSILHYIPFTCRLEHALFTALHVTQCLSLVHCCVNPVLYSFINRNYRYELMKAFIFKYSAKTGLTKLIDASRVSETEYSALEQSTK
Sequence (P32121 whole entry partner): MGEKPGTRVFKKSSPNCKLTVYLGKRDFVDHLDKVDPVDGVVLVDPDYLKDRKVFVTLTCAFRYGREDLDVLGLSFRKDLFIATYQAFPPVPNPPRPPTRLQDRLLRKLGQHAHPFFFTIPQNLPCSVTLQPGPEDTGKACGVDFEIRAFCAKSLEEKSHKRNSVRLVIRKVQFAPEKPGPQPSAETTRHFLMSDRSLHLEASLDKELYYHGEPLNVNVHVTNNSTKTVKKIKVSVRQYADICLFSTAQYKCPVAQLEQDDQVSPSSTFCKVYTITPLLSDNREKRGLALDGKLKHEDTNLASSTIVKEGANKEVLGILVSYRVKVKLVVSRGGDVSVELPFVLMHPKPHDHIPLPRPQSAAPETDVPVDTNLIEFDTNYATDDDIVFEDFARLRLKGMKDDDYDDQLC
method-notes: PathHunter CHO-K1 CXCR7 b-arrestin assay (agonistic activity)
reported-conditions: PathHunter CHO-K1 CXCR7 b-arrestin cell line
endpoint-label: EC50 (nM)
One number for each entry, in nM.

# example entries with known answers
molecule | scale-unit | experimental-value
CC(c1cccc(NC(=O)c2ncccn2)c1)N1CCC(C(=O)NC2CCCCC2)CC1 (racemic) | nM | 176
CC(c1cccc(NC(=O)c2ccncc2)c1)N1CCC(C(=O)NC2CCCCC2)CC1 (racemic) | nM | 173
O=C(CC1Cc2ccccc2C1)Nc1cccc(CN2CCC(C(=O)NC3CCCCC3)CC2)c1 | nM | 36
COc1cc(CN2CCC(C(=O)NC(C)(C)C)CC2)cc(NC(=O)c2ccc(F)cc2)c1 | nM | 409
CN(C)C/C=C/C(=O)Nc1cccc(CN2CCC(C(=O)NC(C)(C)C)CC2)c1 | nM | 216

// each listed molecule needs a value for EC50
1. Cc1cccc(C(=O)Nc2cccc(CN3CCC(C(=O)NC4CCCCC4)CC3)c2)n1
2. Cc1cc(C(=O)Nc2cccc(CN3CCC(C(=O)NC(C)(C)C)CC3)c2)cnn1

[0.9, 62]

Each molecule below has a reported value. Please supply its EC50.
1. CC(C)(C)NC(=O)C1CCN(Cc2cccc(NC(=O)C3(c4ccccc4)CC3)c2)CC1
2. O=C(Nc1cccc(CN2CCC(C(=O)NC3CCCC3)CC2)c1)c1ccc(F)cc1
3. CC(C)(C)NC(=O)C1CCN(Cc2cccc(NC(=O)C3(c4ccc(Cl)cc4Cl)CC3)c2)CC1
4. CCc1ccc(NC(=O)c2cncc(C)c2)cc1CN1CCC(C(=O)NC(C)(C)C)CC1
5. CCc1ccc(NC(=O)c2cccc(C(F)(F)F)n2)cc1CN1CCC(C(=O)NC(C)(C)C)CC1
6. Cc1cncc(C(=O)Nc2cc(CN3CCC(C(=O)NC(C)(C)C)CC3)ccc2C)c1

[1, 0.9, 2, 57, 16, 6]

Dear colleague, could you send me EC50 for each of the items below? Thanks.
1. Cc1ccc(NC(=O)c2ccc(F)cc2)cc1CN1CCC(C(=O)NC(C)(C)C)CC1
2. CCC(C)(C)NC(=O)C1CCN(Cc2cccc(NC(=O)c3ccc(F)c[n+]3[O-])c2)CC1
3. COc1ccc(CC(=O)Nc2cccc(CN3CCC(C(=O)NC4CCCCC4)CC3)c2)cc1
4. CC(C)(C)NC(=O)C1CCN(Cc2cccc(NC(=O)Cc3ccccc3Cl)c2)CC1

1. 1
2. 2
3. 79
4. 1

Report EC50 for each item below.
1. CC(C)C(C(=O)Nc1cccc(CN2CCC(C(=O)NC3CCCCC3)CC2)c1)c1ccccc1 (racemic)
2. O=C(Nc1cccc(CN2CCC(C(=O)NC3CCCCC3)CC2)c1)c1cncc(C2CC2)c1

1. 35
2. 5

----------
tested-on: CXCR7 (Homo sapiens (Human))
method-notes: PathHunter CHO-K1 CXCR7 b-arrestin assay (agonistic activity)
Type: cell-based
reported-conditions: PathHunter CHO-K1 CXCR7 b-arrestin cell line
endpoint-label: EC50 (nM)
Answers are plain numbers, in nM.

structure | tested-on | EC50, nM
O=C(Nc1cccc(CN2CCC(C(=O)NC3CC3)CC2)c1)c1ccc(F)cn1 | CXCR7 (Homo sapiens (Human)) | 2
Cc1cc(C(=O)Nc2cccc(CN3CCC(C(=O)NC4CCCCC4)CC3)c2)ccn1 | CXCR7 (Homo sapiens (Human)) | 10
O=C(Nc1cccc(CN2CCC(C(=O)NC3CCCCC3)CC2)c1)c1cc(Cl)ccn1 | CXCR7 (Homo sapiens (Human)) | 3
Cc1ccc(C(=O)Nc2cccc(CN3CCC(C(=O)NC4CCCCC4)CC3)c2)cc1C | CXCR7 (Homo sapiens (Human)) | 7
COc1ccc(NC(=O)c2cccc(C(F)(F)F)n2)cc1CN1CCC(C(=O)NC(C)(C)C)CC1 | CXCR7 (Homo sapiens (Human)) | 6
CC(C)(C)NC(=O)C1CCN(Cc2cccc(NC(=O)Cc3ccc(F)cc3Cl)c2)CC1 | CXCR7 (Homo sapiens (Human)) | 2

Next item in the queue.
The measured EC50 associated with O=C(Nc1ccc(Cl)c(CN2CCC(C(=O)NC3CCCC3)CC2)c1)c1cncc(C(F)(F)F)c1 reads 0.8

----------
tested-on: CXCR7 (Homo sapiens (Human), UniProt P25106)
method-notes: PathHunter CHO-K1 CXCR7 b-arrestin assay (agonistic activity)
reported-conditions: PathHunter CHO-K1 CXCR7 b-arrestin cell line
endpoint-label: EC50

compound | experimental-value
Cc1cc(F)ccc1C(=O)Nc1cccc(CN2CCC(C(=O)NC3CCCCC3)CC2)c1 [Example 1.115] | 5 nM
CC(C)(C)NC(=O)C1CCN(Cc2cccc(NC(=O)c3cncc(C(F)(F)F)c3)c2)CC1 [Example 1.230] | 1 nM

Items follow; give EC50 for each.
1. CCNC(=O)C1CCCN(Cc2cccc(NC(=O)c3cncc(C)c3)c2)CC1 (racemic) [Example 1.287]
2. O=C(Cc1ccccc1Cl)Nc1cccc(CN2CCC(C(=O)NC3CCCCC3)CC2)c1 [Example 1.025]

1. 181 nM
2. 3 nM

Could I get EC50 for every one of these entries?
1. CC(C)(C)NC(=O)C1CCN(Cc2cccc(NC(=O)C(C)(C)c3ccccc3)c2)CC1 [Example 1.311]
2. Cc1cccc(C(=O)Nc2cccc(C(C)N3CCC(C(=O)NC4CCCCC4)CC3)c2)n1 (racemic) [Example 1.182]
3. O=C(Nc1cccc(CN2CCC(C(=O)NC3CCCCC3)CC2)c1)c1cccc(Cl)c1 [Example 1.033]
4. CC(c1cccc(NC(=O)c2cccc(C#N)c2)c1)N1CCC(C(=O)NC2CCCCC2)CC1 (racemic) [Example 1.179]
5. CC(C)(C)c1ccc(C(=O)Nc2cccc(CN3CCC(C(=O)NC4CCCCC4)CC3)c2)s1 [Example 1.283]
6. COc1cccc(C(=O)Nc2cccc(CN3CCC(C(=O)NC4CCCCC4)CC3)c2)c1 [Example 1.023]
7. CCC(C)(C)NC(=O)C1CCN(Cc2cccc(NC(=O)c3cc(C)c[n+]([O-])c3)c2)CC1 [Example 4.023]
8. COc1ccc(C(=O)Nc2cccc(CN3CCC(C(=O)NC4CCCCC4)CC3)c2)cc1C [Example 1.122]

["1 nM", "7 nM", "2 nM", "78 nM", "34 nM", "4 nM", "173 nM", "15 nM"]

----------
tested-on: UniProtKB P25106
method-notes: PathHunter CHO-K1 CXCR7 b-arrestin assay (agonistic activity)
reported-conditions: PathHunter CHO-K1 CXCR7 b-arrestin cell line
endpoint-label: pEC50
Answers are plain numbers, as −log10 of the molar value.

Worked cases, answers included:
compound | tested-on | endpoint-label | experimental-value
Cc1cccc(C(=O)Nc2cccc(CN3CCC(C(=O)NC4CCCCC4)CC3)c2)c1C [Example 1.109] | UniProtKB P25106 | pEC50 | 7.40
N#Cc1cccc(C(=O)Nc2cccc(CN3CCC(C(=O)NC4CCCCC4)CC3)c2)c1 [Example 1.106] | UniProtKB P25106 | pEC50 | 7.92
CC(C)(C)NC(=O)C1CCN(Cc2cccc(NC(=O)c3cnc4ccccc4n3)c2)CC1 [Example 1.232] | UniProtKB P25106 | pEC50 | 8.52

# return pEC50 for each item in the list
1. CC(C)(C)NC(=O)C1CCN(Cc2cccc(NC(=O)c3ccc(Cl)c[n+]3[O-])c2)CC1 [Example 4.024]
2. O=C(Nc1ccc(Cl)c(CN2CCC(C(=O)NC3CCCC3)CC2)c1)c1cnc2ccccc2c1 [Example 1.222]
3. O=C(Cc1cccc(Cl)c1)Nc1cccc(CN2CCC(C(=O)NC3CCCCC3)CC2)c1 [Example 1.024]

8.52
8.52
8.00
